Taken from patent US20240239894A1.

# ASSAY_SYSTEM: T1, Cyno B7-H4-Fc (Cyno B7H4 ECD, FcTM_6His) (cynomolgus monkey)
# T1 construct: extracellular domain; also called cynomolgus B7-H4-Fc
# EXPERIMENTAL_PROTOCOL: HTRF binding, human IgG1
MEASURED_PROPERTY: Max
Reply with just the number.

Data request, read-out Max, for ZY0EO5-E07 human IgG1 (antibody, V domains shown, also called ZY0E05-E07; E05-E07) VH: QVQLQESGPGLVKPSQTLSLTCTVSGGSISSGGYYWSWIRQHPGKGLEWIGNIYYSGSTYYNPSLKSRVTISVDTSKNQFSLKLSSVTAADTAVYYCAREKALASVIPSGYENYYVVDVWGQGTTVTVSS VL: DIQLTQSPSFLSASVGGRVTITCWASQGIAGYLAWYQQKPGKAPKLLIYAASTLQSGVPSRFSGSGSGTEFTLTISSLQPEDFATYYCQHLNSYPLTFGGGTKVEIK
1360
